system: ducksalad (Heteranthera limosa); assay: Test B flooded paddy test plant response; format: in vivo; conditions: Heteranthera limosa; Flood (flooded paddy test), 250 g ai/ha; scale 0 to 100, 0 no effect, 100 complete control; read-out: Plant response rating, Ducksalad
experimental_endpoint: pest or weed control at 250 g/ha
Hi, when you answer, please include the unit after the number. Thanks!

Worked cases, answers included:
Cc1cn(-c2ccc(Cl)cc2)nc1-c1c(O)cnn(C)c1=O [Compound 30]	0%
CCc1c(C)c(-c2ccc(Cl)cc2)nn1-c1c(O)cnn(C)c1=O [Compound 26]	70%
Cc1cc(-c2ccc(C(F)(F)F)cc2)nn1-c1c(O)cnn(C)c1=O [Compound 1]	30%

[in] Could you share which pest or weed control at 250 g/ha value was measured for Cc1cc(-c2ccc(Br)cc2)nn1-c1c(OC(=O)C2CC2)cnn(C(=O)C2CC2)c1=O [Compound 80] ?
[out] 0%
